# target: T1, recombinant human TfR-1, His-tagged (Sino Biological 11020-H07H) (human, UniProt P02786 89-760)
# T1 construct: bought; His-tagged; also called hTfR1; hTfR-1
# T1 sequence (P02786 89-760 limits assumed): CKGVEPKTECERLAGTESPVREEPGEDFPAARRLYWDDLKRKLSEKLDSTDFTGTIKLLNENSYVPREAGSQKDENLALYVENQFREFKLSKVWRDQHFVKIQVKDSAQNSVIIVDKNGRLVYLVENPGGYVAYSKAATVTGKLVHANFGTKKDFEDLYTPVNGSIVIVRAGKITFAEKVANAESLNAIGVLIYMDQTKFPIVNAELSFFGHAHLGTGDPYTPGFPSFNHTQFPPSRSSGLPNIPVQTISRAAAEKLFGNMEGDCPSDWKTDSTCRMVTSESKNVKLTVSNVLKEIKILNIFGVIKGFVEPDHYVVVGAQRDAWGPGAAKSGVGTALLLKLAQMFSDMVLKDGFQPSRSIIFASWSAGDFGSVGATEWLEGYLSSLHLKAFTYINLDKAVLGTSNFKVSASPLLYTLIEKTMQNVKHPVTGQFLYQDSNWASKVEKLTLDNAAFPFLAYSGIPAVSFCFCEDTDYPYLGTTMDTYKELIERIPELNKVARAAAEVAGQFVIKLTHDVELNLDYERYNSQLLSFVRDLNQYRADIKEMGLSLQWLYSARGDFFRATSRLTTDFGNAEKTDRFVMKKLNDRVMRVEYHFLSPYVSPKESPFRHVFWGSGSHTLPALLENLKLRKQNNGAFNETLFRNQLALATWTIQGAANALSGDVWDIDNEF
# assay text: SPR, His-captured TfR1
The threshold is 3 nM. Values of Kd beneath it are tagged Y; values meeting or exceeding it are tagged N.

Clone C variant 21 VNAR-hFc (Fc fusion, not shown: a dimerising Fc or GST) ARVDQTPQTITKETGESLTINCVLRDSNCALSSTYWYRKKSGSTNEENISKGGRYVETVNSGSKSFSLRINDLTVEDSGTYRCNVVQYPSIFNYFWCDVYGDGTAVTVN: N
Clone C variant 20 VNAR-hFc (Fc fusion, not shown: a dimerising Fc or GST) ARVDQTPQTITKETGESLTINCVLRDSNCALSSTYWYRKKSGSTNEENISKGGRYVETVNSGSKSFSLRINDLTVEDSGTYRCNVVQYPSHNNYFWCDVYGDGTAVTVN: N
Clone C variant 8 VNAR-hFc (Fc fusion, not shown: a dimerising Fc or GST) ARVDQTPQTITKETGESLTINCVLRDSNCALSSTYWYRKKSGSTNEENISKGGRYVETVNSGSKSFSLRINDLTVEDSGTYRCNVVQWPSYNNYFWCDVYGDGTAVTVN: N
Clone C variant 12 VNAR-hFc (Fc fusion, not shown: a dimerising Fc or GST) ARVDQTPQTITKETGESLTINCVLRDSNCALSSTYWYRKKSGSTNEENISKGGRYVETVNSGSKSFSLRINDLTVEDSGTYRCNVVQYPQQDNPFWCDVYGDGTAVTVN: Y
Clone C variant 1 VNAR-hFc (Fc fusion, not shown: a dimerising Fc or GST) ARVDQTPQTITKETGESLTINCVLRDSNCALSSTYWYRKKSGSTNEENISKGGRYVETVNSGSKSFSLRINDLTVEDSGTYRCNVAQRPSYNNYFWCDVYGDGTAVTVN: Y
